Reported Ki values are given for each entry in this list.
# experimentalSystem: hCA XII (Homo sapiens, UniProt O43570)
# Construct: made in house
# Sequence (O43570 25-354): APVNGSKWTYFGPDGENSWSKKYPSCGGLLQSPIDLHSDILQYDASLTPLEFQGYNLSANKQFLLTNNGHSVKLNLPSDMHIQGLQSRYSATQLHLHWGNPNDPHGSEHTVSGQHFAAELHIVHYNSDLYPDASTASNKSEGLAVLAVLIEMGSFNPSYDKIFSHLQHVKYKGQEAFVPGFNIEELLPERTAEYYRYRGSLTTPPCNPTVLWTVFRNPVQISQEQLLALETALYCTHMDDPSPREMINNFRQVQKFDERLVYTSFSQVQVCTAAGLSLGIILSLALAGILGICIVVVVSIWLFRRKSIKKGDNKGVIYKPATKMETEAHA
# measurementDescription: stopped-flow CO2 hydrase assay, hCA XII
# Format: biochemical
# condition: recombinant hCA XII; mean from 3 different assays, errors ±5–10%

Known Ki results, listed for orientation:
O=S(=O)(NCC(O)c1ccccc1)c1ccccc1CO (stereo not drawn)
64 nM
O=[N+]([O-])c1ccccc1CNS(=O)(=O)c1ccccc1CO
383 nM

Then this compound:
Task: Report Ki for "O=S(=O)(NCc1ccc(C(F)(F)F)cc1)c1ccccc1CO" please.
Result: 7.2 nM
